Each recorded value in this set is attributed to patent US20260176313A1.

System: PBMCs from healthy donors
Assay: In vitro IFNγ ELISPOT screening for immune responses to TGFb-1 peptides
Format: cell-based, human
Conditions: donors with significant response: Fisher test <0.01, ratio peptide:control >2, background subtracted spots >25
Protocol: FIG. 6. IFNγ ELISPOT identifies strong and frequent immune responses. Immune responses to TGFb-1 peptides were identified in PBMCs from 14 healthy donors. PBMCs were stimulated with the indicated TGFb-1 peptides and responses were analyzed after seven days by IFNγ ELISPOT. Significant responses (*) were defined by a Fisher exact P value<0.01, a ratio of peptide to control spots>2, and background subtracted spots>25. […]

{"Polymer sequence": "YDKFKQSTHSIYMFFNTSELREAVPEPVLLS [Pep04-1, polypeptide fragment of human TGFb-1, positions 121-151]", "Positive Donors (out of 14)": 7}
{"Polymer sequence": "TGRRGDLATIHGMNRPFLLL [Pep08-1, polypeptide fragment of human TGFb-1, positions 241-260]", "Positive Donors (out of 14)": 7}
{"Polymer sequence": "YDKFKQSTHSIYMFFNTSEL [Pep05-1, polypeptide fragment of human TGFb-1, positions 121-140]", "Positive Donors (out of 14)": 7}
{"Polymer sequence": "LMVETHNEIYDKFKQSTHSIYMFFNTSELREAVPEPVLLS [Pep01-1, polypeptide fragment of human TGFb-1, positions 112-151]", "Positive Donors (out of 14)": 9}
{"Polymer sequence": "REAVPEPVLLSRAELRLLRLKLKVEQHVE [Pep11-1, polypeptide fragment of human TGFb-1, positions 141-169]", "Positive Donors (out of 14)": 5}
{"Polymer sequence": "DINGFTTGRRGDLATIHGMNRPFLLL [Pep07-1, polypeptide fragment of human TGFb-1, positions 235-260]", "Positive Donors (out of 14)": 5}
{"Polymer sequence": "YMFFNTSELREAVPEPVLLSRAELRLLRLKLKVEQHVE [Pep10-1, polypeptide fragment of human TGFb-1, positions 132-169]", "Positive Donors (out of 14)": 5}
{"Polymer sequence": "LMVETHNEIYDKFKQSTHSIYMFFNTSEL [Pep02-1, polypeptide fragment of human TGFb-1, positions 112-140]", "Positive Donors (out of 14)": 6}
{"Polymer sequence": "DSRDNTLQVDINGFTTGRRGDLATIHGMNRPFLLL [Pep06-1, polypeptide fragment of human TGFb-1, positions 226-260]", "Positive Donors (out of 14)": 5}
{"Polymer sequence": "REAVPEPVLLSRAELRLLRL [Pep09-1, polypeptide fragment of human TGFb-1, positions 141-160]", "Positive Donors (out of 14)": 7}
{"Polymer sequence": "LMVETHNEIYDKFKQSTHSIYMFF [Pep03-1, polypeptide fragment of human TGFb-1, positions 112-135]", "Positive Donors (out of 14)": 6}
